System: 242566-281-R-J2-PDC complex spheroid viability
Experiment: Anticancer human tumor 242566-281-R-J2-PDC patient-derived pancreatic carcinoma cell line growth inhibition [RAS]
Details: second compound 0.316 µM; first compound 0.3 µM; hits give low values
From the text: RAS pathway inhibitors in Combinations in Complex Spheroids A high-throughput screen of multi-cell type tumor spheroids was designed to identify active combinations of RAS pathway inhibitors and targeted small molecules. Complex spheroids include a stromal component modeled by human endothelial cells (HUVEC) and fibroblasts modeled by human mesenchymal stem cells (MSCs). […] Compounds. […] If the clinical Cmax for an agent had not been determined, the highest concentration tested was 10 microM. […]
Readout Kind: viability, T/C (%)
Write the number in % without appending the unit.

I'd like to know its viability, T/C. The compound in question is CCc1c2c(nc3ccc(O)cc13)-c1cc3c(c(=O)n1C2)COC(=O)[C@]3(O)CC + C#Cc1c(F)ccc2cc(O)cc(-c3ncc4c(N5CC6CCC(C5)N6)nc(OCC56CCCN5CC(F)C6)nc4c3F)c12
36

And CCc1c2c(nc3ccc(O)cc13)-c1cc3c(c(=O)n1C2)COC(=O)[C@]3(O)CC + C=CC(=O)N1CCN(c2nc(OCC3CCCN3C)nc3c(F)c(-c4nc(N)cc(C)c4C(F)(F)F)c(Cl)cc23)C(C)C1 ?
14.7

And CC1(C)CCC(Nc2ncc(C(F)(F)F)c(-c3c[nH]c4c(P(C)(C)=O)c(C#N)ccc34)n2)CN1 (centres undefined) + C#Cc1c(F)ccc2cc(O)cc(-c3ncc4c(N5CC6CCC(C5)N6)nc(OCC56CCCN5CC(F)C6)nc4c3F)c12 ?
62.9

And CC1(C)CCC(Nc2ncc(C(F)(F)F)c(-c3c[nH]c4c(P(C)(C)=O)c(C#N)ccc34)n2)CN1 (centres undefined) + C=CC(=O)N1CCN(c2nc(OCC3CCCN3C)nc3c(F)c(-c4nc(N)cc(C)c4C(F)(F)F)c(Cl)cc23)C(C)C1 ?
149

---

Listing of entries alongside the reported viability, T/C.
test system: 242566-281-R-J2-PDC complex spheroid viability; assay: Anticancer human tumor 242566-281-R-J2-PDC cell line growth inhibition [RAS]; conditions: second compound 0.00949 µM; first compound 0.00316 µM; hits give low values;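 further: spheroids exposed to compound for 7 days before readout; 100% = DMSO vehicle control wells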

Guide cases for viability, T/C, answers given:
Compound | Recorded Result
CCN1CCN(Cc2ccc(Nc3ncc(F)c(-c4cc(F)c5nc(C)n(C(C)C)c5c4)n3)nc2)CC1 + CCn1c(-c2cccnc2C(C)OC)c2c3cc(ccc31)N1CCOC(CC(NC(=O)C(C(C)C)N(C)C(=O)C3(F)CCN(C(=O)C#CC(C)(C)N(C)C)CC3)C(=O)N3CCCC(N3)C(=O)OCC(C)(C)C2)C1 | 102%
C=CC(=O)N1CCN(c2nc(OCC3CCCN3C)nc3c(F)c(-c4nc(N)cc(C)c4C(F)(F)F)c(Cl)cc23)C(C)C1 (configuration not stated) + CCn1c(-c2cc(N3CCN(C)CC3)cnc2C(C)OC)c2c3cc(ccc31)-c1csc(n1)CC(NC(=O)C1CC1C)C(=O)N1CCCC(N1)C(=O)OCC(C)(C)C2 | 46.6%
Nc1ccn(C2OC(CO)C(O)C2(F)F)c(=O)n1 (configuration not stated) + CCn1c(-c2cc(N3CCN(C)CC3)cnc2C(C)OC)c2c3cc(ccc31)-c1csc(n1)CC(NC(=O)C1CC1C)C(=O)N1CCCC(N1)C(=O)OCC(C)(C)C2 | 50.5%
CC(C)n1nc(-c2ccc3oc(N)nc3c2)c2c(N)ncnc21 + CCn1c(-c2cc(N3CCN(C)CC3)cnc2C(C)OC)c2c3cc(ccc31)-c1csc(n1)CC(NC(=O)C1CC1C)C(=O)N1CCCC(N1)C(=O)OCC(C)(C)C2 | 36.1%
Nc1ccn(C2OC(CO)C(O)C2(F)F)c(=O)n1 (configuration not stated) + CCn1c(-c2cccnc2C(C)OC)c2c3cc(ccc31)N1CCOC(CC(NC(=O)C(C(C)C)N(C)C(=O)C3(F)CCN(C(=O)C#CC(C)(C)N(C)C)CC3)C(=O)N3CCCC(N3)C(=O)OCC(C)(C)C2)C1 | 104%
O=C(c1ccc(F)c(F)c1Nc1ccc(I)cc1F)N1CC(O)([C@@H]2CCCCN2)C1 + CCn1c(-c2cc(N3CCN(C)CC3)cnc2C(C)OC)c2c3cc(ccc31)-c1csc(n1)CC(NC(=O)C1CC1C)C(=O)N1CCCC(N1)C(=O)OCC(C)(C)C2 | 39.9%
C=CC(=O)Nc1cc(Nc2nccc(-c3cn(C)c4ccccc34)n2)c(OC)cc1N(C)CCN(C)C + CCn1c(-c2cc(N3CCN(C)CC3)cnc2C(C)OC)c2c3cc(ccc31)-c1csc(n1)CC(NC(=O)C1CC1C)C(=O)N1CCCC(N1)C(=O)OCC(C)(C)C2 | 48.4%
CCN1CCN(Cc2ccc(Nc3ncc(F)c(-c4cc(F)c5nc(C)n(C(C)C)c5c4)n3)nc2)CC1 + CCn1c(-c2cc(N3CCN(C)CC3)cnc2C(C)OC)c2c3cc(ccc31)-c1csc(n1)CC(NC(=O)C1CC1C)C(=O)N1CCCC(N1)C(=O)OCC(C)(C)C2 | 53.8%

I'd like to know its viability, T/C. The compound in question is O=C(c1ccc(F)c(F)c1Nc1ccc(I)cc1F)N1CC(O)([C@@H]2CCCCN2)C1 + CCn1c(-c2cccnc2C(C)OC)c2c3cc(ccc31)N1CCOC(CC(NC(=O)C(C(C)C)N(C)C(=O)C3(F)CCN(C(=O)C#CC(C)(C)N(C)C)CC3)C(=O)N3CCCC(N3)C(=O)OCC(C)(C)C2)C1
101%

And CC(C)n1nc(-c2ccc3oc(N)nc3c2)c2c(N)ncnc21 + CCn1c(-c2cccnc2C(C)OC)c2c3cc(ccc31)N1CCOC(CC(NC(=O)C(C(C)C)N(C)C(=O)C3(F)CCN(C(=O)C#CC(C)(C)N(C)C)CC3)C(=O)N3CCCC(N3)C(=O)OCC(C)(C)C2)C1 ?
87.7%

And C=CC(=O)Nc1cc(Nc2nccc(-c3cn(C)c4ccccc34)n2)c(OC)cc1N(C)CCN(C)C + CCn1c(-c2cccnc2C(C)OC)c2c3cc(ccc31)N1CCOC(CC(NC(=O)C(C(C)C)N(C)C(=O)C3(F)CCN(C(=O)C#CC(C)(C)N(C)C)CC3)C(=O)N3CCCC(N3)C(=O)OCC(C)(C)C2)C1 ?
119%

And C=CC(=O)N1CCN(c2nc(OCC3CCCN3C)nc3c(F)c(-c4nc(N)cc(C)c4C(F)(F)F)c(Cl)cc23)C(C)C1 (configuration not stated) + CCn1c(-c2cccnc2C(C)OC)c2c3cc(ccc31)N1CCOC(CC(NC(=O)C(C(C)C)N(C)C(=O)C3(F)CCN(C(=O)C#CC(C)(C)N(C)C)CC3)C(=O)N3CCCC(N3)C(=O)OCC(C)(C)C2)C1 ?
103%
